system: Saccharomyces cerevisiae; experiment: protein stability index of tFT-peptide fusion (C-terminal peptide) (PSI (0-1 scale)); higher = more stable (slower turnover); settings: genetic background: wild type; temperature: 30 C
Measured Property: protein stability index
The reply should be a number, written without any unit.

Data request, read-out protein stability index, for HKELLAKLEGSD [HNT1 C-terminal 12 aa]
0.703

* * *

system: Saccharomyces cerevisiae; assay: protein stability index of tFT-peptide fusion (C-terminal peptide) (PSI (0-1 scale)); higher = more stable (slower turnover); conditions: genetic background: doa10 deletion; temperature: 30 C
Consider the following sequences and their measured protein stability index readings.

Examples with answers:
CLLSRYRVFFLG :: 0.134
LLRFFPCFLGVN :: 0.43
PPSRVSIRLLIR :: 0.374
FCLMLWGAVLFL :: 0.226

Which protein stability index is reported for this sequence? GMNGLFFIAMLG
0.195

// protein stability index lookup, key: SRLVIGRWSVLV
0.177

What protein stability index value was documented for this sequence, VFLVRTVTQISA ?
0.219

I'd like to know its protein stability index. The sequence in question is WIVQCCLYVPVQ
0.212

Find the recorded protein stability index belonging to FAIPFVLFFRVT and report it.
0.259

Can you share its protein stability index? I mean this sequence: VPPGCSLFAFIL
0.555
